TESTED_TARGET: Histone deacetylase 1 (Rattus norvegicus, UniProt Q4QQW4)
Sequence (Q4QQW4 whole entry): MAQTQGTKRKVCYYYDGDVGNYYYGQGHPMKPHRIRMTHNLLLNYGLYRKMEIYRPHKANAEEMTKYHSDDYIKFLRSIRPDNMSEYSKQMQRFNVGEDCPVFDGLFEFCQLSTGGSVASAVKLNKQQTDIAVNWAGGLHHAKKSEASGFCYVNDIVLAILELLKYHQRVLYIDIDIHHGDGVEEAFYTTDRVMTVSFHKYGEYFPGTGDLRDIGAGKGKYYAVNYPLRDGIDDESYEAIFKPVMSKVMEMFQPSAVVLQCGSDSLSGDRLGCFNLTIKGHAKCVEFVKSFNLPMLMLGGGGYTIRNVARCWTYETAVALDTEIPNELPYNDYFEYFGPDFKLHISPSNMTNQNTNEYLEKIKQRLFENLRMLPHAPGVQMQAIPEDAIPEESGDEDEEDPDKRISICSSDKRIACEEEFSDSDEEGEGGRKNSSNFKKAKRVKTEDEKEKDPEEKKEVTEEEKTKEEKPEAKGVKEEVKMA
PROTOCOL_DESCRIPTION: Inhibition of HDAC1 in rat liver extract
pIC50: −log10 of the molar value. Non-standard residues stand in square brackets, D forms with d. Residues, ends and D or L forms follow the SMILES beside them. *: point of attachment. Asu = N[C@@H](CCCCCC(=O)O)C(=O)O; Aib = CC(C)(N)C(=O)O; NHOH = ON*
Mark yes (1) for reported pIC50 of 6 or greater; mark no (0) for anything smaller.

Lookup: hey, is pIC50 for this one >= 6? COC(=O)[C@H](Cc1ccc(-c2ccsc2)cc1)NC(=O)CCCCCCCC(=O)NO
Found: no (0)

Lookup: Say whether COC(=O)[C@H](Cc1ccc(-c2ccc3ccccc3c2)cc1)NC(=O)CCCCCCC(=O)NO shows pIC50 of 6 or more.
Found: yes (1)

Lookup: Please indicate if the recorded pIC50 for COC(=O)[C@H](Cc1ccc(-c2cccs2)cc1)NC(=O)CCCCCCC(=O)NO meets or exceeds 6.
Found: yes (1)

Lookup: Decide: pIC50 of COC(=O)[C@H](Cc1ccc(-c2ccccc2)cc1)NC(=O)CCCCCCCC(=O)NO >= 6?
Found: no (0)

Lookup: Test whether the compound CC1(C)NC(=O)[C@H](CCCCCC(=O)NO)NC(=O)[C@H]2CCCN2C(=O)[C@H](Cc2ccccc2)NC1=O (cyclo([Aib]F[dP][Asu](NHOH))) records pIC50 of 6 or higher.
Found: yes (1)

Lookup: pIC50 >= 6 for COC(=O)[C@H](Cc1ccc(-c2ccccc2)cc1)NC(=O)CCCCCCC(=O)NO ?
Found: yes (1)

Lookup: Assess whether reported pIC50 for COC(=O)[C@H](Cc1ccc(-c2ccc(-c3ccccc3)cc2)cc1)NC(=O)CCCCCCCC(=O)NO sits at 6 or higher.
Found: no (0)

Lookup: Could you tell me if the measured pIC50 of COC(=O)[C@H](Cc1ccc(-c2ccc(-c3ccccc3)cc2)cc1)NC(=O)CCCCCCC(=O)NO reaches 6 or more?
Found: yes (1)

* * *

TESTED_TARGET: Histone deacetylase 1 (Rattus norvegicus)
PROTOCOL_DESCRIPTION: Inhibition of HDAC1 in rat liver extract by trypsin assay
EXPERIMENTAL_ENDPOINT: pIC50
# pIC50 = -log10(concentration in molar units)

Lookup: API: value(readout= pIC50, system= Histone deacetylase 1 (Rattus norvegicus), query= COC(=O)[C@H](Cc1ccc(-c2ccc3ccccc3c2)cc1)NC(=O)CCCCCCCC(=O)NO )
Found: 5.28

* * *

Tested on: PC-3
PROTOCOL_DESCRIPTION: Cytotoxicity against human PC3 cells after 48 hrs by One aqueous proliferation assay
Format: functional, cell-based
TEST_CONTEXT: PC-3, 48 h
EXPERIMENTAL_ENDPOINT: pIC50
Please note pIC50 is a logarithmic value: minus log10 of concentration in mol/L. Answer with that number alone.

Lookup: # get_value(readout='pIC50', item= COC(=O)[C@H](Cc1ccc(-c2ccoc2)cc1)NC(=O)CCCCCCCC(=O)NO )
Found: 5.00

Lookup: Value lookup for pIC50; key = COC(=O)[C@H](Cc1ccc(-c2ccccc2)cc1)NC(=O)CCCCCCCC(=O)NO
Found: 5.00

Lookup: Dear colleague, I am looking for the recorded pIC50 of the following molecule: COC(=O)[C@H](Cc1ccc(-c2ccsc2)cc1)NC(=O)CCCCCCCC(=O)NO
Found: 5.00

Lookup: Query (molecule): COC(=O)[C@H](Cc1ccc(-c2cccs2)cc1)NC(=O)CCCCCCC(=O)NO ; field requested: pIC50
Found: 5.74
